These records show GI50 for MDA-MB-435.
parameter.measured: GI50

{"columns": ["compound", "measurement"],
 "data": [
  ["COc1ccc(/C(COc2ccc3c(=O)cc(-c4ccccc4)oc3c2)=N\\O)cc1", "6770 nM"],
  ["CCC(C)(CC(C)(C)C(=O)NCC(=O)NC(Cc1ccccc1)C(=O)NC(Cc1ccccc1)C(=O)NCC(=O)NC1CC(OC2CC(O)(C(=O)CO)Cc3c(O)c4c(c(O)c32)C(=O)c2c(OC)cccc2C4=O)OC(C)C1O)C(=O)NCC(C)O (centres undefined)", "> 150 µg/mL"],
  ["CC(C)[C@H](N)C(=O)N1CCC[C@H]1B(O)O", "> 100000 nM"],
  ["CC(C)(C)n1cc(-c2ccnc(NCCCNS(=O)(=O)c3ccc(C(F)(F)F)cc3)c2)c(-c2cccc(O)c2)n1", "1810 nM"],
  ["CCN(CC)CCCC(C)Nc1ccnc2cc(Oc3ccccc3)ccc12 (centres undefined)", "2380 nM"],
  ["Nc1c(C(=O)c2cccc(-c3ccncc3)c2)cnn1-c1ccc(F)cc1F", "684 nM"],
  ["Fc1ccc2c(c1)C1=NN(c3ccccc3)C(F)C1CO2 (centres undefined)", "6700 nM"],
  ["CCCCCCCCCCCCCCCCCCOc1ccccc1CC(=O)OCC[N+]1(C)CCCCC1", "1700 nM"],
  ["CCN(CC)CCCCNc1c2ccccc2[n+](C)c2c1[nH]c1ccccc12", "600 nM"]
]}

###

# GI50 listing for each entry below
Tested on: NCI-H522 lung
Experiment: NCI tumour cell line growth inhibition, 48 h

{"columns": ["molecule", "GI50"],
 "data": [
  ["CN[C@@H](C)C(=O)N[C@H](C(=O)N1CCC[C@H]1C(=O)Nc1snnc1-c1ccccc1)C1CCCCC1", "18.3 µM"],
  ["CCC(C)(CC(C)(C)C(=O)NCC(=O)NC(Cc1ccccc1)C(=O)NC(Cc1ccccc1)C(=O)NCC(=O)NC1CC(OC2CC(O)(C(=O)CO)Cc3c(O)c4c(c(O)c32)C(=O)c2c(OC)cccc2C4=O)OC(C)C1O)C(=O)NCC(C)O (stereo unspecified)", "45.5 µg/mL"],
  ["CC(C)(C)n1cc(-c2ccnc(NCCCNS(=O)(=O)c3ccc(C(F)(F)F)cc3)c2)c(-c2cccc(O)c2)n1", "1.99 µM"],
  ["C=C1C(=O)O[C@H]2[C@H]1CC/C(COC(=O)NCc1cn(C)c3ccccc13)=C\\CC[C@@]1(C)O[C@@H]21", "1.02 µM"],
  ["COc1cc(/C=C/C(=O)c2cccc(Nc3nc(Nc4ccccc4)nc(Nc4ccccc4)n3)c2)cc(OC)c1OC", "5.11 µM"],
  ["O=C([CH-]C(=O)c1ccccc1)c1ccccc1.O=C([CH-]C(=O)c1ccccc1)c1ccccc1.[La+3].[OH-].[OH3+]", "3.29 µM"]
]}

###

Test system: SR leukemia
Assay: NCI tumour cell line growth inhibition, 48 h
parameter.measured: log10 of TGI (log10 of the value in µM)

{"columns": ["compound", "target.system", "log10 of TGI"],
 "data": [
  ["Nc1ncnn2c(C3OC(CO)C(O)C3O)ccc12 (stereo not given)", "SR leukemia", -0.08],
  ["NC(N)=N/N=C/c1c(-c2ccc(Cl)cc2)nc2sccn12", "SR leukemia", 1.12],
  ["Cc1c(C(N)=O)sc2c1C(=O)N(Cc1ccccc1)C1=NN=C(c3ccc(Cl)cc3)CN12", "SR leukemia", 1.71],
  ["O=C1/C(=C/c2cccc(Br)c2)CCc2ccccc21", "SR leukemia", 1.26],
  ["COCCOC(=O)c1c(C)n([O-])c2cc(Cl)c(Cl)cc2[n+]1=O", "SR leukemia", 1.28]
]}

Every entry's value here was drawn from PubChem BioAssay (NCI).
